EXPERIMENT_DESCRIPTION: Aqueous solubility
Format: physicochemical
TEST_SETTINGS: water
Where a name gives a salt, the structure may show the parent alone.

MOLECULE	U	RESULT_MODIFIER	solubility
CCC[C@H](N)C(=O)N[C@@H](C)C(=O)NC1CCN(c2c(F)cc3c(=O)c(C(=O)O)cn4c3c2Oc2ccccc2-4)C1 (some centres unmarked) [Example 40, hydrochloride]	mg/mL	>	47.8
CCC[C@H](N)C(=O)NC1CCN(c2c(F)cc3c(=O)c(C(=O)O)cn4c3c2Oc2ccccc2-4)C1 (some centres unmarked) [Example 8, hydrochloride]	mg/mL	=	10.7
C[C@H](N)C(=O)N[C@@H](C)C(=O)NC1CCN(c2c(F)cc3c(=O)c(C(=O)O)cn4c3c2Oc2ccccc2-4)C1 (some centres unmarked) [Example 37, hydrochloride]	mg/mL	=	28.2
CCC[C@H](NC(=O)[C@@H](N)CCC)C(=O)NC1CCN(c2c(F)cc3c(=O)c(C(=O)O)cn4c3c2Oc2ccccc2-4)C1 (some centres unmarked) [Example 38, hydrochloride]	mg/mL	=	11.1
NC1CCN(c2c(F)cc3c(=O)c(C(=O)O)cn4c3c2Oc2ccccc2-4)C1 (centres unmarked)	mg/mL	=	8.8

---

System: P388-ADR(0.0), ADRIAMYCIN-resistant variant of P388
EXPERIMENT_DESCRIPTION: In vitro cytotoxicity (MTT), P388-ADR(0.0)
Assay type: cell-based
TEST_SETTINGS: Mus musculus, 72 h, inoculum grown in drug-free medium, Table 2
Experimental: Metabolic activity was measured by the cells' ability to reduce the tetrazolium dye, 3-(4,5-dimethylthiazol-2-yl)-2,5-diphenyltetrazolium bromide (MTT), to a quantifiable colored formasan derivative. Surviving cells reduce the MTT dye. The inhibitory concentrations of killing 50% of the cells (IC50 s) were calculated. Testing was in accord with the following protocol: […] After harvesting by trypsinization, viable cell counts were determined and cell density was adjusted to 25,000 cells/mL. […]
Where a name gives a salt, the structure may show the parent alone.

MOLECULE	MEASURED_TARGET	IC50 [µg/mL]
NC1CCN(c2c(F)cc3c(=O)c(C(=O)O)cn4c3c2Oc2ccccc2-4)C1 (stereo not shown)	P388-ADR(0.0), ADRIAMYCIN-resistant variant of P388	0.12
N[C@@H]1CCN(c2c(F)cc3c(=O)c(C(=O)O)cn4c3c2Oc2ccccc2-4)C1 [Example 17, hydrochloride]	P388-ADR(0.0), ADRIAMYCIN-resistant variant of P388	0.1
Cc1ccc2c(c1)Oc1c(N3CCC(N)C3)c(F)cc3c(=O)c(C(=O)O)cn-2c13 (stereo not shown) [Example 6, hydrochloride]	P388-ADR(0.0), ADRIAMYCIN-resistant variant of P388	0.2
NC1CCN(c2c(F)cc3c(=O)c(C(=O)N4CCOCC4)cn4c3c2Oc2ccccc2-4)C1 (stereo not shown)	P388-ADR(0.0), ADRIAMYCIN-resistant variant of P388	49.4

All figures here come from patent US5624924A.
